Listed next: entries and their corresponding pIC50.
Molecular target: Mitogen-activated protein kinase 14 (Homo sapiens)
Sequence (Q16539 whole entry): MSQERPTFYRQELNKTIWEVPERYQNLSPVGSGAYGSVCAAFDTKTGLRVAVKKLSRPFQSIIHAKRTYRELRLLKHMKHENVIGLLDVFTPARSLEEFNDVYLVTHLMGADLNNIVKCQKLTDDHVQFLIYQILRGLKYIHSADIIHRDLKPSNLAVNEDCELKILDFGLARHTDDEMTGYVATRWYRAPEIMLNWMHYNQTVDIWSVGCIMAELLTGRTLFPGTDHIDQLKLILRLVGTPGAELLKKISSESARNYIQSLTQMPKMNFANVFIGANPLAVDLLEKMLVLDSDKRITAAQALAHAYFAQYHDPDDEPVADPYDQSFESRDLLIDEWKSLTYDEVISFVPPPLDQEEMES
Test: Inhibition of p38alpha by HTRF assay
pIC50: −log10 of the molar value.

{"smiles_input": "Cc1ccc(NC(=O)Nc2cccc(C(F)(F)F)c2)cc1-c1ccc2nc(N)ncc2c1", "pIC50": 7.55}
{"smiles_input": "Cc1ccc(NC(=O)c2cccc(C(F)(F)F)c2)cc1C(=O)Nc1cnc(NC2CCN(C)CC2)nc1", "pIC50": 8.30}
{"smiles_input": "Cc1ccc(NC(=O)c2cccc(C(F)(F)F)c2)cc1C(=O)Nc1cnc(NCCCN2CCOCC2)nc1", "pIC50": 8.00}
{"smiles_input": "Cc1ccc(NC(=O)c2cccc(C(F)(F)F)c2C)cc1C(=O)Nc1cnc(Nc2ccc(N3CCN(C)CC3)cc2)nc1", "pIC50": 7.92}
{"smiles_input": "Cc1ccc(NC(=O)c2cccc(C(F)(F)F)c2)c(C)c1C(=O)Nc1cnc(Nc2ccc(N3CCN(C)CC3)cc2)nc1", "pIC50": 6.99}

* * *

System: Blood
Assay: Inhibition of anti-CD3-induced IL2 production in human whole blood by ELISA
Type: functional, tissue-based

{"smiles_input": "Cc1ccc(NC(=O)c2cccc(C(F)(F)F)c2)cc1C(=O)Nc1cnc(Nc2ccc(N3CCN(C)CC3)cc2)nc1", "IC50 [nM]": 7}
{"smiles_input": "Cc1ccc(NC(=O)c2cc(F)cc(C(F)(F)F)c2)cc1C(=O)Nc1cnc(Nc2ccc(N3CCN(C)CC3)cc2)nc1", "IC50 [nM]": 16}
{"smiles_input": "Cc1ccc(NC(=O)c2ccc3c(c2)OC(F)(F)O3)cc1C(=O)Nc1cnc(Nc2ccc(N3CCN(C)CC3)cc2)nc1", "IC50 [nM]": 13}

* * *

Each entry below carries its recorded half-life.
Experiment: Half life in Sprague-Dawley rat at 0.5 mg/kg, iv
Type: ADME, organism-based
Set-up: dose 0.5 mg/kg, route intravenous
Conditions: in vivo
reported_property: half-life (h)

{"smiles_input": "Cc1ccc(NC(=O)c2cc(F)cc(C(F)(F)F)c2)cc1C(=O)Nc1cnc(Nc2ccc(N3CCN(C)CC3)cc2)nc1", "reported_property": "half-life", "val": 3.8}
{"smiles_input": "COc1cc(OC)cc(C(=O)Nc2ccc(C)c(C(=O)Nc3cnc(Nc4ccc(N5CCN(C)CC5)cc4)nc3)c2)c1", "reported_property": "half-life", "val": 2.5}
{"smiles_input": "Cc1ccc(NC(=O)c2cccc(C(F)(F)F)c2)cc1C(=O)Nc1cnc(Nc2ccc(N3CCN(C)CC3)cc2)nc1", "reported_property": "half-life", "val": 3.2}
